- STUDY SYSTEM: Kallikrein-5 (Homo sapiens)
- METHOD DESCRIPTION: kallikrein 5 (hK5) inhibition IC50 – biochemical, 1536-well, dose response (AID 1431)
- REPORTED CONDITIONS: recombinant KLK5 enzyme activity, fluorogenic substrate
Calls of active or inactive are those of the source. No rule for the calls is given here.
Write down the outcome that applies. Available outcomes: active, inactive

Data request: What is the recorded call for this compound in the test? "COc1ccc2c(c1)C(c1ccc([N+](=O)[O-])cc1)=NNC(c1ccco1)=N2"
Data returned: inactive

Data request: Kindly provide the recorded test outcome for the following compound: "O=C(O)c1cc(/C=N\O)ccc1OCc1ccccc1"
Data returned: inactive

Data request: Given COc1cccc(N2CCN(C3CC(=O)N(c4ccc(F)c(Cl)c4)C3=O)CC2)c1 (stereo not drawn) , state the outcome it received in this test.
Data returned: inactive

Data request: Called result for "O=C1c2ccccc2C(=O)N1/N=C/c1ccc(O)c(O)c1O"
Data returned: inactive

Data request: Which outcome was assigned to "O=c1[nH]c(=O)n(Cc2ccco2)c(O)c1C=NCc1ccco1" in this test?
Data returned: inactive

Data request: Would you mind telling me which call this test gave "Oc1ccc2ccccc2c1C=NC12CN3CCN(CN(C3)C1)C2" ?
Data returned: inactive

Data request: Test call, this compound: "O=C1C(C=NCCCN2CCOCC2)=C(O)c2ccccc21"
Data returned: inactive

Data request: Please state the recorded outcome for this compound: COC(=O)c1cc(N2C(=O)C3C(C2=O)C2(C)C=CC3(C)O2)ccc1Cl (stereo not drawn)
Data returned: inactive

Data request: // param item: "CC(=O)C1=C(C)NC(C)=C(C(C)=O)C1c1cccs1" ; yields the recorded call
Data returned: inactive

Data request: Call for entry Cc1cc(N2C(=O)CC(Cc3ccc(Cl)cc3)C2=O)no1 (stereo not drawn) :
Data returned: inactive

Data request: What did the test return for "COc1ccc2c(c1)C(c1ccc(N3CCOCC3)cc1)=NNC(c1cccnc1)=N2" ?
Data returned: inactive

Data request: Per the assay record, what outcome was assigned to CCC(=O)N1c2ccccc2NC2=C(C(=O)CCC2)C1c1ccc(N(C)C)cc1 (stereo not drawn) ?
Data returned: inactive

Data request: Recorded test call requested for Cc1ccc(NC2c3ncccc3C(=O)N2c2ccccc2C)cc1C (stereo not drawn)
Data returned: active
